A collection of compounds and their measured logD
assay: The octanol-water partition coefficient at pH 4.5; assay type: physicochemical
Output spec: single numeric token, no unit.

{"columns": ["compound", "value_reported"],
 "data": [
  ["CC(CF)NCC(O)COc1cccc2[nH]c3ccccc3c12 (configuration not stated) [FLUOROCARAZOLOL]", 0.38]
]}

Here's the next entry for you.
Which logD is reported for this compound? CC(C)NCC(O)COc1cccc2[nH]c3ccccc3c12 (configuration not stated) [CARAZOLOL] 0.3

----------
logD reference
assay: The octanol-water partition coefficient at pH 7.5; type: physicochemical
Could you respond with only the numeric value?

{"columns": ["molecule", "value_reported"],
 "data": [
  ["CC(C)NCC(O)COc1cccc2[nH]c3ccccc3c12 (configuration not stated)", 1.51]
]}

Now for a further molecule.
Need logD of CC(CF)NCC(O)COc1cccc2[nH]c3ccccc3c12 (configuration not stated) , thanks. 2.48
